Where do the numbers come from? From patent US20250186594A1.

Catalogue of EC50, HEK-Blue IL18R reporter readings, one per entry.
targetEntity: T1, IL-18 receptor (IL-18R) on HEK-Blue IL18R reporter cells (UniProt Q13478 19-541; O95256 20-599, limits assumed)
T1 sequence (looked up) 1: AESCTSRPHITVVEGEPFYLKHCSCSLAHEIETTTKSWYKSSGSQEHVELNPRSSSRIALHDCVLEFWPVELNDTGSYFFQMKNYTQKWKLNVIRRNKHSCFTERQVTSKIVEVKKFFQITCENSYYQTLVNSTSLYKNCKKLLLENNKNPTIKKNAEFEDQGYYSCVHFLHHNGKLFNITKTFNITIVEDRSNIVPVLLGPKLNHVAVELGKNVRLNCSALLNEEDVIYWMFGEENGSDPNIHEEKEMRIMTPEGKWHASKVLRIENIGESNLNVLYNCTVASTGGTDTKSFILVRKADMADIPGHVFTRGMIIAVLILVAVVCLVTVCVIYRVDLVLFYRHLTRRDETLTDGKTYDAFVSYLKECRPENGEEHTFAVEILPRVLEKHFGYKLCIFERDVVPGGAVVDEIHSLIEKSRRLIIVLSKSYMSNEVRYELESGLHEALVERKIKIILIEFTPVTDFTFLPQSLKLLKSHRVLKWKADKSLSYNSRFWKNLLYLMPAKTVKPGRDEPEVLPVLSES
T1 sequence (looked up) 2: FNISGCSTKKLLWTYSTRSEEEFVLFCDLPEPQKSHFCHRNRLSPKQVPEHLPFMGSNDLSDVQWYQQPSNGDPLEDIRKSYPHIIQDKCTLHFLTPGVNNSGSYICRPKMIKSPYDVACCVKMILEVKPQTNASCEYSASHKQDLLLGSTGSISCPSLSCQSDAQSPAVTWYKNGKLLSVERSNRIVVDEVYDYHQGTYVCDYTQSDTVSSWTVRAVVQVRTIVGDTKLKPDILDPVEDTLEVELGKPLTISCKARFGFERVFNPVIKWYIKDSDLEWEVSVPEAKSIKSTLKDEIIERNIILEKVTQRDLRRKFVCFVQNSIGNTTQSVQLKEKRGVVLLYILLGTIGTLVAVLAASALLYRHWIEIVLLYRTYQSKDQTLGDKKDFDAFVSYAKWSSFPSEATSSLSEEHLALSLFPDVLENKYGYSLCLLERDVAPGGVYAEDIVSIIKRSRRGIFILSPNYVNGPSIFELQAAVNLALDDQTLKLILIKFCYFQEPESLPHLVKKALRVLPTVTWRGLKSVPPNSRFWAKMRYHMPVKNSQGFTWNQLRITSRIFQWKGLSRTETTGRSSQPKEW
measurementProtocol: cell-based or functional assay
Please respond with the number in nM and leave the unit unwritten.

Examples from the recorded data:
IL-18 variant SEQ ID NO: 210 (V11I, E31A, C38A, K53A, C76A, C127A) (ligand) YFGKLESKLSIIRNLNDQVLFIDQGNRPLFADMTDSDARDNAPRTIFIISMYADSQPRGMAVTISVKCEKISTLSAENKIISFKEMNPPDNIKDTKSDIIFFQRSVPGHDNKMQFESSSYEGYFLAAEKERDLFKLILKKEDELGDRSIMFTVQNED
6.6
IL-18 variant SEQ ID NO: 63 (E6K, C38A, K53A, C76A, C127A) (ligand) YFGKLKSKLSVIRNLNDQVLFIDQGNRPLFEDMTDSDARDNAPRTIFIISMYADSQPRGMAVTISVKCEKISTLSAENKIISFKEMNPPDNIKDTKSDIIFFQRSVPGHDNKMQFESSSYEGYFLAAEKERDLFKLILKKEDELGDRSIMFTVQNED
0.0139

For IL-18 variant SEQ ID NO: 211 (V11I, T34A, C38A, K53A, C76A, C127A) (ligand) YFGKLESKLSIIRNLNDQVLFIDQGNRPLFEDMADSDARDNAPRTIFIISMYADSQPRGMAVTISVKCEKISTLSAENKIISFKEMNPPDNIKDTKSDIIFFQRSVPGHDNKMQFESSSYEGYFLAAEKERDLFKLILKKEDELGDRSIMFTVQNED , write its EC50, HEK-Blue IL18R reporter.
0.7
